# ASSAY_PROTOCOL: Inhibition of Candida albicans Nce103 beta-carbonic anhydrase by stopped flow CO2 hydration assay
RECORDED_METRIC: Ki
Report as: number unit

# count of solved cases: 3
{"COMPOUND": "CC(C)CCC(=O)O", "Ki": "2.14 µM"}
{"COMPOUND": "COc1ccc(C(N)=O)cc1", "Ki": "0.54 µM"}
{"COMPOUND": "CC(=O)Nc1nnc(S(N)(=O)=O)s1 [ACETAZOLAMIDE]", "Ki": "0.13 µM"}

Q: Tell me the measured Ki of CCC(C)CCC(=O)O (configuration not stated) , please.
A: 1.25 µM

Q: Thanks! And CC(C)C(=O)[O-].[Na+] [SODIUM ISOBUTYRATE] ?
A: 0.98 µM

Q: Thanks! And "O=C(O)c1ccc(CCl)cc1" ?
A: 4.71 µM

Q: Thanks! And CCCC(C)C(=O)O (configuration not stated) ?
A: 10.4 µM

Q: Thanks! And CCCCCCC(CCCC)C(=O)O (configuration not stated) ?
A: 10.7 µM

Q: Thanks! And COC(=O)c1ccc(OC)cc1 [METHYL 4-METHOXYBENZOATE] ?
A: 0.61 µM

Q: Thanks! And "O=C(O)c1ccc(I)cc1" ?
A: 5.17 µM

Q: Thanks! And "COc1ccc(C(=O)NO)cc1" ?
A: 0.47 µM

Q: Thanks! And CCCCC(CC)C(=O)O (configuration not stated) ?
A: 43.1 µM

Q: Thanks! And "O=C(O)c1ccc([N+](=O)[O-])cc1" ?
A: 4.85 µM

Q: Thanks! And CCCCC(CC)CCC(=O)O (configuration not stated) ?
A: 37.9 µM

Q: Thanks! And "N#Cc1ccc(C(=O)O)cc1" ?
A: 4.47 µM

Q: Thanks! And "O=C(O)c1ccc(O)cc1" ?
A: 0.11 µM

Q: Thanks! And CCCCC(CC)C(=O)NO (configuration not stated) ?
A: 3.05 µM

Q: Thanks! And "Nc1cccc(C(=O)O)c1" ?
A: 3.4 µM

Q: Thanks! And "COc1ccc(C(=O)NN)cc1" ?
A: 0.81 µM

Q: Thanks! And CCC(C)CC(=O)O (configuration not stated) ?
A: 11.1 µM

Q: Thanks! And "O=C(O)c1ccc(F)cc1" ?
A: 1.09 µM

Q: Thanks! And CCCCC(CC)C(=O)OC (configuration not stated) ?
A: 5.6 µM
